Molecular target: SARS-CoV-2 RBD-hFc (SARS-CoV-2)
Test: Luminex beads
reported property: binding result

- binder: "mAb10982 (antibody, V domains shown) VH: EVQLVESGGGLVQPGGSLRLSCAASGLTVSSNYMSWVRQAPGKGLEWVSVIYSGGTTYYADSVKGRFTISRHNSKNTLSLQMNSLRAEDTAVYYCARGEGANYYGMDVWGQGTTVTVSS VL: QSVLTQPPSVSGAPGQRVTISCTGSSSNIGTGYDVHWYQQLPGTAPKLLIYGNSNRPSGVPDRFSGSKSGTSASLAITGLQAEDEADYYCQSYDSSLSGYVVFGGGTKLTVLG"
  reported: "binds"
- binder: "mAb10998 (antibody, V domains shown) VH: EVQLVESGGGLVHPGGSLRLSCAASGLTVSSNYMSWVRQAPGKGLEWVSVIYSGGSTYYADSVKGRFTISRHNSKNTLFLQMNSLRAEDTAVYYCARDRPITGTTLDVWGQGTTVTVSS VL: DIQMTQSPSSLFASVGDRVTITCRASQSISSYLNWYQQKPGKAPKLLIYAASSLQSGVPSRFSGSGSGTDFTLTISSLQPEDFAFYYCQQTYSTPPITFGQGTRLEIK"
  reported: "binds"
- binder: "mAb10955 (antibody, V domains shown) VH: EVQLVESGGGLVQPGGSLRVSCAASGFTVSRNYMSWVRQAPGKGLEWVSVIYSGGSTFYADSVKGRFTISRDNSKNTLYLQMNSLRAEDTAIYYCARYIPRFDPWGQGTLVTVSS VL: DIQMTQSPSSLSASVGDRVTITCQASQDISNYLNWFQQKPGRAPKLLIYDASNLETGVPSRFSGSGSGTDFTFTISSLQPEDIATYYCQQYDNLPITFGQGTRLEIKR"
  reported: "binds"

Value source: patent US20240043504A1
